target: CaBzz1-D1; assay: SPOT peptide array binding signal intensity (averaged, normalized) (arbitrary units (background-subtracted, floor 0; scale differs between SH3 domains)); higher = stronger binding of the SH3 domain to the peptide
OBSERVED PROPERTY: SPOT peptide array binding signal intensity
Reply: number alone, nothing else.

Prompt: Specify reported SPOT peptide array binding signal intensity for the binder shown: LRIKRKPVQTFFEFI
Completion: 107
